Target Of Assay: human mTOR (Homo sapiens (Human))
Sequence (P42345 1360-2549): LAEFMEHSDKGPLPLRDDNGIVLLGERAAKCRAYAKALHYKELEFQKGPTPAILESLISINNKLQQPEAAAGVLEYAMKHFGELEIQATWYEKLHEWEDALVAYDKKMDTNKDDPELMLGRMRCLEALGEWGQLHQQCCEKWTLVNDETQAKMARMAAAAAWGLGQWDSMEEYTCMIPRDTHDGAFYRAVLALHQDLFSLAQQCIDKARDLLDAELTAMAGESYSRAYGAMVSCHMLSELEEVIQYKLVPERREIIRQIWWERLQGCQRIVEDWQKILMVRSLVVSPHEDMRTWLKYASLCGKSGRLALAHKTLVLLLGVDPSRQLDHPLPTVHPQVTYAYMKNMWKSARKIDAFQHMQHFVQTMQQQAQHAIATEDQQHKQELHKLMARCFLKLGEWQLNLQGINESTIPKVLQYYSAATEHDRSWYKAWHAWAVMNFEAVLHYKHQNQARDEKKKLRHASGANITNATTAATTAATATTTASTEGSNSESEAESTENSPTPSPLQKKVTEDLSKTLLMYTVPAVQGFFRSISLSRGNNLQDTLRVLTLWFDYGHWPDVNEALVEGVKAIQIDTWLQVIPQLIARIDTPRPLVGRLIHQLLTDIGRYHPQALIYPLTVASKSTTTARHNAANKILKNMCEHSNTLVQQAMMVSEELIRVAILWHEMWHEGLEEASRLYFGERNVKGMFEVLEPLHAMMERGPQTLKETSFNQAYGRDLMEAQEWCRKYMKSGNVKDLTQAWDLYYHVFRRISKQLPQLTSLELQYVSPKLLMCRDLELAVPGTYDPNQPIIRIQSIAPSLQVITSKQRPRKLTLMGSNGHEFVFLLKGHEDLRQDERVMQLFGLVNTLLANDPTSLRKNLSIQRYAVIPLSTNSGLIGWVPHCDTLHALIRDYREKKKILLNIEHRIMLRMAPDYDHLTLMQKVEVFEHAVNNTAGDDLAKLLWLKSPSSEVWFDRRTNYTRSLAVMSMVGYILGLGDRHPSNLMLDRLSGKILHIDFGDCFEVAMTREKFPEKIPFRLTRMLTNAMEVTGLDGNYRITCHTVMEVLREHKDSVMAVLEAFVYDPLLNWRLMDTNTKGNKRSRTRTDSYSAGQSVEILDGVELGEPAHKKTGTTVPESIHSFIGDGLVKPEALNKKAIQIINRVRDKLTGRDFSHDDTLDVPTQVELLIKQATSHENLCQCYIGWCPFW
Experiment Description: mTOR kinase assay (TR-FRET, for comparative purposes)
Format: biochemical
Measurement Context: read-out: mTOR % inhibition @ 1 μM, 1 μM test compound, 40 μM ATP, mean values
Counter-ions that a name gives are not always drawn.
We use 20% as the dividing line for inhibition at 1 µM: on or above the line is Yes, below is No.

>  <Compound>
COc1cc(C)cc2cc(-c3cc(CN4CCN(C(N)=O)CC4)n4ncnc(N)c34)sc12

>  <Group Label>
Yes

$$$$
>  <Compound>
COc1cc(C)cc2cc(-c3cc(CNCCNC(C)(C)C)n4ncnc(N)c34)sc12

>  <Group Label>
No

$$$$
>  <Compound>
COc1cc(C)cc2cc(-c3cc(CN4CCC[C@@H](N)C4)n4ncnc(N)c34)sc12

>  <Group Label>
Yes

$$$$
>  <Compound>
COc1cc(C)cc2cc(-c3cc(CNC4CC4)n4ncnc(N)c34)sc12

>  <Group Label>
Yes

$$$$
>  <Compound>
COc1cc(C)cc2cc(-c3cc(CN4CCCN(CCO)CC4)n4ncnc(N)c34)sc12

>  <Group Label>
No

$$$$
>  <Compound>
COc1cc(C)cc2cc(-c3cc(CN4CCN(C(=O)CCC(N)=O)CC4)n4ncnc(N)c34)sc12 [Example 95, dihydrochloride]

>  <Group Label>
Yes

$$$$
>  <Compound>
COc1cc(C)cc2cc(-c3cc(C(=O)N4CCC(O)CC4)n4ncnc(N)c34)sc12

>  <Group Label>
Yes

$$$$
>  <Compound>
COc1cc(C)cc2cc(-c3cc(CN4CC[C@@H](O)C4)n4ncnc(N)c34)sc12

>  <Group Label>
No

$$$$
>  <Compound>
COc1cc(C)cc2cc(-c3cc(CNC4CCN(C(C)C)CC4)n4ncnc(N)c34)sc12

>  <Group Label>
No

$$$$
>  <Compound>
COc1cc(C)cc2cc(-c3cc(CN4CCN(CCO)CC4)n4ncnc(N)c34)sc12

>  <Group Label>
No

$$$$
